Here the recorded MIC is given for each entry.
# Test system: WT E. coli
# PROCEDURE_SUMMARY: Minimal inhibitory concentration in wild-type E. coli
# Assay type: cell-based, Escherichia coli
# CONDITION_NOTES: wild-type E. coli, 37° C., 16 hours; read-out: MIC (μM) in WT E. coli
// return numeric value only (unit: µM, not printed)

Sample answers from the record:
1. CO[C@@H]1[C@@H](OC(N)=O)[C@@H](O)[C@H](Oc2ccc3c(O)c(NC(=O)c4ccc(O)c(-c5ccc6ccccc6c5)c4)c(=O)oc3c2C)OC1(C)C [Compound 92]	150
2. CO[C@@H]1[C@@H](OC(N)=O)[C@@H](O)[C@H](Oc2ccc3c(O)c(NC(=O)c4ccc(N)c(-c5ccccc5)c4)c(=O)oc3c2C)OC1(C)C [Compound 86]	18

Now consider a different molecule.
Query CO[C@@H]1[C@@H](OC(N)=O)[C@@H](O)[C@H](Oc2ccc3c(O)c(NC(=O)c4cccc(-c5ccc(C)cc5)c4)c(=O)oc3c2C)OC1(C)C [Compound 20] yields MIC of 26
